Test: thallium flux activation in parental CHO cells, counter-screen for KCNQ1 potentiator project (AID 493006);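 for activation: fluorescence ratio of max minus min over baseline after K+ and Tl+ depolarization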
Conditions: parental CHO-K1 cells, FluxOR thallium flux, at 10 µM; hits give high values
The source made the active and inactive calls.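 Rule for the calls: active = duplicate-averaged activation above buffer control mean plus 5 SD of those controls; inactive = the rest.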
measurement-kind: activation

In the examples that follow, each entry is paired with its recorded activation.
# compound, reading
records = [
    ("Cc1onc(-c2ccccc2)c1C(=O)NC(=S)Nc1sc2c(c1C#N)CCC(C)C2 (stereo unspecified)", "145% (active)"),
    ("O=C(NC(=S)Nc1ccccc1)c1csnn1", "588% (active)"),
    ("CC(C)c1ccc(OCC(=O)NNC(=S)NC(=O)c2cccs2)c(Br)c1", "inactive"),
    ("CC(C)CC(=O)NC(=S)Nc1nc(-c2ccccc2)cs1", "284% (active)"),
]

Sure, the documented activation for COc1ccc(NC(=O)CC2C(=O)N(c3ccc(Cl)cc3)C(=S)N2NC(=O)c2cccc(F)c2)cc1 (stereo unspecified) is inactive

activation reading for `Cc1[nH][nH]c(=O)c1C(c1ccc(-c2ccc(F)cc2)o1)c1c(C)[nH][nH]c1=O` : inactive
